# run_description: Volume of distribution at steady state in Han-Wistar rat at 1 mg/kg, iv by LC-MS/MS analysis
# Assay type: ADME, organism-based
# assay_context: in vivo, read-out: Vdss
assay_endpoint: Vd (L/kg)

CCOc1cc2oc(=O)n(CCC(=O)O)c2cc1Cl ... 0.36

P. O=C(O)CCn1c(=O)oc2cc(OC3CC3)c(Cl)cc21
Q. Cc1cc2oc(=O)n(CCC(=O)O)c2cc1Cl
Could you please tell me which of these two has the higher Vd: P or Q ? Write the label of whichever entry you select.
Q
(Q: 0.52 L/kg, P: 0.29 L/kg)

----------
# run_description: Stability of the compound in presence of light measured after 12 hrs
# Format: physicochemical
# assay_context: read-out: Stability
assay_endpoint: remaining at 12 h (%)

C[C@@H](Oc1cc2onc(CCC(=O)O)c2cc1Cl)c1ccccn1 [GSK-065] ... 97.7
Cc1ccc([C@@H](C)Oc2cc3onc(CCC(=O)O)c3cc2Cl)nc1 ... 96.5
CCOc1cc2oc(=O)n(CCC(=O)O)c2cc1Cl ... 99.5
O=C(O)CCn1c(=O)oc2cc(OCC3CC3)c(Cl)cc21 ... 105
